# assay_target: human GLP-1 receptor (human, UniProt P43220 24-463)
# test_method_notes: cell-based or functional assay
Measured GLP-1 activity (EC50, pM) of individual entries
Record the result as number plus unit.

In the examples that follow, each entry is paired with its recorded GLP-1 activity (EC50, pM).
binder	GLP-1 activity (EC50, pM)
MLC088 (ligand, Moiety C (HOOC-(CH2)20-CO-gGlu-2XADO-EDA-CO-CH2) on 41C of Linker (72C of fusion polypeptide)) HGEGTFTSDVSSYLEEQAAKEFIAWLVRGGGGAQPGAQPGAQPGAQPGAQPGAQPGAQPGAQPGQEPGAQPCQEPGAQPGQEPGAQPGQEPGAQPGQEPGAQPGQEPGAQPARQGDHCPLGPGRCCRLHTVRASLEDLGWADWVLSPREVQVTMCIGACPSQFRAANLHAQIKTSLHRLKPDTVPAPCCVPASYNPMVLIQKTDTGVSLQTYDDLLAKDCHCI	1.6 pM
MLC043 (ligand, Moiety A (HOOC-(CH2)16-CO-gGlu-2XADO) on 26K of GLP-1 (20K of fusion polypeptide)) HGEGTFTSDVSSYLEEQAAKEFIAWLVRGGGGQEPGAQPGQEPGAQPGQEPGAQPGQEPGAQPGQEPGAQPGQEPGAQPGAQPGAQPGAQPARQGDHCPLGPGRCCRLHTVRASLEDLGWADWVLSPREVQVTMCIGACPSQFRAANLHAQIKTSLHRLRPDTVPAPCCVPASYNPMVLIQRTDTGVSLQTYDDLLARDCHCI	1.8 pM
MLC047 (ligand, Moiety A (HOOC-(CH2)16-CO-gGlu-2XADO) on 40K of linker (71K of fusion polypeptide) per Table 2; Table 3 prints 41K of linker) HGEGTFTSDVSSYLEEQAAREFIAWLVRGGGGQEPGAQPGQEPGAQPGQEPGAQPGQEPGAQPGQEPGAQKGQEPGAQPGAQPGAQPGAQPGAQPGAQPGAQPGAQPGAQPARQGDHCPLGPGRCCRLHTVRASLEDLGWADWVLSPREVQVTMCIGACPSQFRAANLHAQIKTSLHRLRPDTVPAPCCVPASYNPMVLIQRTDTGVSLQTYDDLLARDCHCI	1 pM

GET /values?readout=GLP-1 activity (EC50, pM)&item= MLC006 (ligand, Moiety A (HOOC-(CH2)16-CO-gGlu-2XADO) on 36K of GLP-1 (30K of fusion polypeptide)) HGEGTFTSDVSSYLEEQAAREFIAWLVRGKGGQEPGQEPGQEPGQEPGQEPGQEPGQEPGQEPGAQPGAQPARQGDHCPLGPGRCCRLHTVRASLEDLGWADWVLSPREVQVTMCIGACPSQFRAANLHAQIKTSLHRLRPDTVPAPCCVPASYNPMVLIQRTDTGVSLQTYDDLLARDCHCI
28.7 pM

Next binder up: MLC104 (ligand, Moiety A (HOOC-(CH2)16-CO-gGlu-2XADO) on 76K of Linker (107K of fusion polypeptide)) HGEGTFTSDVSSYLEEQAAREFIAWLVRGGGGQEPGAQPGQEPGAQPGQEPGAQPGQEPGAQPGQEPGAQPGQEPGAQPGAQPGAQPGAQPGAQPGAQPGAQPGAQKGAQPARQGDHCPLGPGRCCRLHTVRASLEDLGWADWVLSPREVQVTMCIGACPSQFRAANLHAQIKTSLHRLRPDTVPAPCCVPASYNPMVLIQRTDTGVSLQTYDDLLARDCHCI
0.88 pM

Next binder up: MLC086 (ligand, Moiety C (HOOC-(CH2)20-CO-gGlu-2XADO-EDA-CO-CH2) on 37C of Linker (68C of fusion polypeptide)) HGEGTFTSDVSSYLEEQAAKEFIAWLVRGGGGQEPGAQPGQEPGAQPGQEPGAQPGQEPGAQPGQEPCQAPGQEPGAQPGAQPGAQPGAQPGAQPGAQPGAQPGAQPGAQPARQGDHCPLGPGRCCRLHTVRASLEDLGWADWVLSPREVQVTMCIGACPSQFRAANLHAQIKTSLHRLKPDTVPAPCCVPASYNPMVLIQKTDTGVSLQTYDDLLAKDCHCI
1.1 pM

Next binder up: MLC002 (ligand, Moiety A (HOOC-(CH2)16-CO-gGlu-2XADO) on 26K of GLP-1 (20K of fusion polypeptide)) HGEGTFTSDVSSYLEEQAAKEFIAWLVRGGGGQEPGQEPGQEPGQEPGQEPGQEPGQEPGQEPGAQPGAQPARQGDHCPLGPGRCCRLHTVRASLEDLGWADWVLSPREVQVTMCIGACPSQFRAANLHAQIKTSLHRLRPDTVPAPCCVPASYNPMVLIQRTDTGVSLQTYDDLLARDCHCI
13.1 pM

Next binder up: MLC074 (ligand, Moiety B (HOOC-(CH2)16-CO-gGlu-2XADO-EDA-CO-CH2) on 41C of Linker (72C of fusion polypeptide)) HGEGTFTSDVSSYLEEQAAKEFIAWLVRGGGGQEPGAQPGQEPGAQPGQEPGAQPGQEPGAQPGQEPGAQPCQEPGAQPGAQPGAQPGAQPGAQPGAQPGAQPGAQPGAQPARQGDHCPLGPGRCCRLHTVRASLEDLGWADWVLSPREVQVTMCIGACPSQFRAANLHAQIKTSLHRLKPDTVPAPCCVPASYNPMVLIQKTDTGVSLQTYDDLLAKDCHCI
0.94 pM

Next binder up: MLC080 (ligand, Moiety B (HOOC-(CH2)16-CO-gGlu-2XADO-EDA-CO-CH2) on 35C of Linker (66C of fusion polypeptide)) HGEGTFTSDVSSYLEEQAAKEFIAWLVRGGGGQEPGAQPGQEPGAQPGQEPGAQPGQEPGAQPGQCPGAQPGQEPGAQPGQEPGAQPGAQPGAQPGAQPGAQPGAQPGAQPARQGDHCPLGPGRCCRLHTVRASLEDLGWADWVLSPREVQVTMCIGACPSQFRAANLHAQIKTSLHRLKPDTVPAPCCVPASYNPMVLIQKTDTGVSLQTYDDLLAKDCHCI
1.6 pM

Next binder up: MLC045 (ligand, Moiety A (HOOC-(CH2)16-CO-gGlu-2XADO) on 1K and 55K of Linker (32K and 86K of fusion polypeptide)) HGEGTFTSDVSSYLEEQAAREFIAWLVRGGGKQEPGAQPGQEPGAQPGQEPGAQPGQEPGAQPGQEPGAQPGQEPGAQPGAQPGAKPGAQPGAQPGAQPGAQPGAQPGAQPARQGDHCPLGPGRCCRLHTVRASLEDLGWADWVLSPREVQVTMCIGACPSQFRAANLHAQIKTSLHRLRPDTVPAPCCVPASYNPMVLIQRTDTGVSLQTYDDLLARDCHCI
1.2 pM

Next binder up: MLC007 (ligand, Moiety A (HOOC-(CH2)16-CO-gGlu-2XADO) on 1K of Linker (32K of fusion polypeptide)) HGEGTFTSDVSSYLEEQAAREFIAWLVRGGGKQEPGQEPGQEPGQEPGQEPGQEPGQEPGQEPGAQPGAQPARQGDHCPLGPGRCCRLHTVRASLEDLGWADWVLSPREVQVTMCIGACPSQFRAANLHAQIKTSLHRLRPDTVPAPCCVPASYNPMVLIQRTDTGVSLQTYDDLLARDCHCI
5.9 pM

Next binder up: MLC102 (ligand) HGEGTFTSDVSSYLEEQAAKEFIAWLVRGGGGQEPGAQPGQEPGAQPGQEPGAQPGQEPGAQPGQEPGAQPGQEPGAQPGAQPGAQPGAQPGAQPGAQPGAQPGAQPGAQPGAQPGAQPGAQPGAQPGAQPGAQPGAQPGAQPGAQPGAQPARQGDHCPLGPGRCCRLHTVRASLEDLGWADWVLSPREVQVTMCIGACPSQFRAANLHAQIKTSLHRLKPDTVPAPCCVPASYNPMVLIQKTDTGVSLQTYDDLLAKDCHCI
2.5 pM

Reference source for all entries: patent US20220017589A1
